// data source = paper PMC13168289

Tested on: P. cynomolgi hypnozoites and schizonts
assay explanation: in vitro liver-stage P. cynomolgi assay in primary rhesus hepatocytes
Format: cell-based, Plasmodium cynomolgi
recorded conditions: Plasmodium cynomolgi, Hepatocyte, in Macaca mulatta, prophylactic mode, schizont; read-out: inhibition IC50
readout type: pIC50
To interpret pIC50, take it as minus log10 of a concentration measured in moles per litre.

[[record]]
compound = "O=C1C(O)=C([C@H]2CC[C@H](c3ccc(Cl)cc3)CC2)C(=O)c2ccccc21"
target_under_test = "P. cynomolgi hypnozoites and schizonts"
readout_number = 8.03


Query (compound): COc1cc(C)c2c(Oc3cccc(C(F)(F)F)c3)c(OC)cc(NC(C)CCCN)c2n1 (stereo not drawn) ; field requested: pIC50 6.77
